# Test target: Tau
# Assay overview: rat primary cortical neurons, FLIPR, 25 uM ASO
Bases are written 5' to 3'; sugars and linkages follow in the same order, as letters with counts (s phosphorothioate, o phosphodiester; PS: all linkages phosphorothioate). The collection does not say whether C is 5-methylated. l = locked nucleic acid (LNA); d = 2'-deoxy (DNA)
Property label: calcium oscillation score

Solved entries (count: 5):
• ATGAGCCACACTTGGAGGTC (sugars l3 d14 l3, PS) = 19.9 % of control
• GCCCATTCTACCTGGCCCAT (sugars l3 d14 l3, PS) = 38.3 % of control
• ACTTTATTTCCAAATTCACTTTTAC (sugars ldllddddddddddddddddllldl, PS) = 76.7 % of control
• TATCATTTTCTTTTTCAAAA (sugars l4 d12 l4, PS) = 37.3 % of control
• GTTAGCCCTAAAGTCC (sugars l3 d10 l3, PS) = 110 % of control

// AATTCATTTAATTCTCTTCT (sugars l4 d12 l4, PS) : calcium oscillation score value = 86.6 % of control

// CAGAACTAAATTTACC (sugars l4 d8 l4, PS) : calcium oscillation score value = 51.1 % of control

// CCTGATCACAAACCCT (sugars l3 d10 l3, PS) : calcium oscillation score value = 100 % of control

// GTCTGGCATGGGCAC (sugars l3 d9 l3, PS) : calcium oscillation score value = 62.9 % of control

---

# Test target: Tau
# Assay overview: rat primary cortical neurons, FLIPR, 25 uM ASO
Bases are written 5' to 3'; sugars and linkages follow in the same order, as letters with counts (s phosphorothioate, o phosphodiester; PS: all linkages phosphorothioate). The collection does not say whether C is 5-methylated. l = locked nucleic acid (LNA); d = 2'-deoxy (DNA)
Property label: calcium oscillation score

Solved entries (count: 3):
* TTTTCTCTCTTAACTTTATT (sugars l4 d12 l4, PS) | 89 % of control
* TCCATTAGTCTCTTCA (sugars l3 d11 l2, PS) | 65.1 % of control
* TGAACAGGAGAGCCATTTCC (sugars l3 d14 l3, PS) | 7.14 % of control

Let us examine a further case.
// TTTCAACTCTTAGCAT (sugars l4 d8 l4, PS) : calcium oscillation score value = 70.8 % of control

---

# Test target: Tau
# Assay overview: rat primary cortical neurons, FLIPR, 25 uM ASO
Bases are written 5' to 3'; sugars and linkages follow in the same order, as letters with counts (s phosphorothioate, o phosphodiester; PS: all linkages phosphorothioate). The collection does not say whether C is 5-methylated. l = locked nucleic acid (LNA); d = 2'-deoxy (DNA)
Property label: calcium oscillation score

Solved entries (count: 4):
* CTTTATTTCCAAATTCACTT (sugars l1 d17 l2, PS) | 179 % of control
* GTGGGTGATATTGTCCAGGG (sugars l3 d14 l3, PS) | 0 % of control
* CCATGATCTTAGGCTG (sugars l3 d10 l3, PS) | 17.6 % of control
* ACTGCGAGGAGCAGCT (sugars l3 d10 l3, PS) | 48.1 % of control

Let us examine a further case.
// AGTGACAGAAGAGACG (sugars l3 d10 l3, PS) : calcium oscillation score value = 9.04 % of control

Where do the numbers come from? From the OligoGym collection.
